Tested on: NCI-H460 lung
assay: NCI-60 one-dose screen, 48 h (100 = growth as untreated, 0 = no growth, -100 = all killed)
reported.conditions: 10 µM unless noted
Compounds without any hit were thinned out: in the full panel of roughly 83,000, 20% have a hit.
quantity: growth (%)
API: value field is a number in %; no unit string.

Examples with their reported growth follow.
| compound | growth [%] |
| --- | --- |
| CO[C@H]1/C=C/C=C/C=C/C[C@H](OC(=O)[C@@H](C)NC(=O)C2CCCCC2)[C@H](C)[C@@H](O)/C(C)=C\CCC2=CC(=O)C=C(NC(=O)C1)C2=O | 1.23 |
| O=c1c2ccccc2[nH]n1Cc1ccc2c(c1)OCO2 | 0.543 |
| CCCCCCCCCCCCCCCCCCNCc1ccc(Cl)cc1 | -71.6 |

Entry O=C(Nc1cccc(-n2ccc3c(NC(=O)c4ccccc4)nccc32)c1)c1cccc(C(F)(F)F)c1 : reported growth = ?
3.05

Entry COc1ccc(/C=C/C(=O)/C=C(/C=C/c2ccc(OC)c(OC)c2OC)OB(F)F)c(OC)c1OC : reported growth = ?
43.6

Entry COC(=O)c1ccc2c(c1)Oc1ccc(Cl)cc1-c1cc(C)nn1-2 : reported growth = ?
14

Entry CC1CCC(C(C)C)C(NN)C1 (stereo unspecified) : reported growth = ?
108

Entry COc1cc(-c2nc(N)n(CC(=O)Nc3ccc(/C(C)=N\O)cc3)n2)cc(OC)c1OC : reported growth = ?
106

====

System: RXF 393 renal
assay: NCI-60 one-dose screen, 48 h (100 = growth as untreated, 0 = no growth, -100 = all killed)
reported.conditions: 10 µM unless noted
Procedure: Cells are grown in 96 well plates and exposed to the test compound for 48 hours. Compounds are tested at a single concentration, which is 10^-5 M for most compounds. The reported endpoint is percent growth (GI% or GIPRCNT), where numbers from 0 - 100% represent growth inhibition, and numbers from -100% - 0 represent cell death. For example, a value of 40 represents 60% growth inhibition. A value of 0 means no net growth occurred over the course of the experiment. […]
About 83,000 compounds went through this panel and 20% of them were active in at least one assay; those are over-represented in the sample as a whole.
Could you mark each record yes (1) if its growth falls strictly under 70%, and no (0) if it equals or exceeds it?

| molecule | class.name |
| --- | --- |
| Nc1nc(-c2cc3c(cc2Cl)NC(=O)/C3=C/c2ccccc2)cs1 | yes (1) |
| CCCCCCCC(=O)SCC/C=C/[C@@H]1CC(=O)NCc2nc(cs2)C2=N[C@@](C)(CS2)C(=O)N[C@@H](C(C)C)C(=O)N1 | yes (1) |
| O=C(O)c1ccc(-n2cc(/C=N/Nc3ccc(F)cc3)c(-c3cccc(C(F)(F)F)c3)n2)cc1 | no (0) |
| c1ccc(OCC[P+](c2ccccc2)(c2ccccc2)c2ccccc2)cc1 | yes (1) |
| CN1C(=O)C2(SCC(C(=O)NCC(=O)OC(C)(C)C)N2C(=O)C2CCCCC2)c2ccccc21 (centres undefined) | no (0) |
| Cc1ccc(N(CC2=NCCN2)c2cccc(O)c2)cc1 | no (0) |
| CCCC(=O)Oc1ccc(/C(=C(\C)c2ccc(OC)cc2)c2ccc(OCCN3CCCCC3)cc2)cc1 | yes (1) |

Here is the next item to consider.
hey, is growth for COc1ccc(-c2nn(-c3ccc(NC(=O)Nc4ccc(Cl)c(C(F)(F)F)c4)cc3)cc2-c2ccncc2)cc1Cl lower than 70% or not?
yes (1)

====

System: SNB-75 CNS
assay: NCI-60 one-dose screen, 48 h
reported.conditions: 10 µM unless noted
Compounds without any hit were thinned out: in the full panel of roughly 83,000, 20% have a hit. Active and inactive are the calls of the source. How the source made its calls: active means growth percent below 10; inactive means the rest.
Hi! Could you answer with just one of these? YES for active, NO for inactive

Record excerpt, results attached:
| compound | class.name |
| --- | --- |
| C=C1C(=O)O[C@H]2[C@H]1CC/C(COC(=O)CCCC(=O)OC/C1=C/CC[C@@]3(C)O[C@H]3[C@H]3OC(=O)C(=C)[C@@H]3CC1)=C\CC[C@@]1(C)O[C@@H]21 | NO |
| O=C1C(Cl)=C(Nc2ccccc2)C(=O)C(Cl)=C1Nc1ccccc1 | NO |
| COc1cc(NS(=O)(=O)c2ccc(N)cc2)ncn1 | NO |
| COc1ccccc1S(=O)(=O)Nc1ccc2c3c(cc(-c4ccoc4)nc13)C(=O)N2C | NO |
| COc1ccc(C2CC(c3cc(Cl)c(C)cc3OC)=NN2c2ccc(S(N)(=O)=O)cc2)cc1OC (stereo unspecified) | NO |
| Cc1cc(N2CCOCC2)nc(N(CCNc2ccnc3cc(Cl)ccc23)Cc2ccco2)n1 | NO |
| COc1cc(-c2nc(SCC(=O)Nc3ccc(C(C)=O)cc3)[nH]c(=O)c2C#N)cc(OC)c1OC | NO |
| Nn1c(SCC(=O)Nc2cc(Cl)c(Cl)cc2Cl)nnc1-c1cc(F)c(Cl)cc1Cl | NO |
| COc1ccc(-c2nn(-c3cccc(Cl)c3)cc2-c2cc(-c3ccc(Br)cc3)[nH]c(=O)c2C#N)cc1 | YES |
| O=C(c1cc(-c2ccc(Cl)cc2)nc2ccccc12)N1N=C(c2ccccc2)CC1c1cc(-c2ccccc2)nn1-c1ccccc1 (stereo unspecified) | NO |

Tell me the assay call for CCOC(=O)C1=C(N)Oc2cc(OC)ccc2C1c1ccc(F)c(F)c1 (stereo unspecified) please.
YES

====

Test system: SK-MEL-5 melanoma
assay: NCI-60 one-dose screen, 48 h (100 = growth as untreated, 0 = no growth, -100 = all killed)
reported.conditions: 10 µM unless noted
Compounds without any hit were thinned out: in the full panel of roughly 83,000, 20% have a hit.
quantity: growth (%)
API: value field is a number in %; no unit string.

Examples with their reported growth follow.
| compound | target.of.assay | growth (%) |
| --- | --- | --- |
| NC(=NCCCOc1ccc(F)cc1)Nc1ccc(Cl)c(Cl)c1 | SK-MEL-5 melanoma | 51.4 |
| O=C(Nc1ccc(-n2ccc3c(NC(=O)c4ccccc4)nccc32)cc1)c1ccc(Cl)c(C(F)(F)F)c1 | SK-MEL-5 melanoma | 27.1 |

Now examine the next entry.
Entry Nc1nccc2c1ccn2-c1ccc(NC(=O)c2ccc(N3CCOCC3)c(C(F)(F)F)c2)cc1 : reported growth = ?
-89.6

====

Test system: NCI-H322M lung
assay: NCI-60 one-dose screen, 48 h
reported.conditions: 10 µM unless noted
About 83,000 compounds went through this panel and 20% of them were active in at least one assay; those are over-represented in the sample as a whole. Calls of active or inactive are those of the source. Rule for the calls: active = growth percent below 10; inactive = the rest.
Hi! Could you answer with just one of these? true = active, false = inactive

Tell me the assay call for CC(=O)CC/C=C(\C)[C@H](O)[C@H](C)C(=O)O[C@H]1C[C@H](C)C=C2C=C[C@@]3(C)O[C@@H](O)CC(=O)[C@]3(C)[C@H]21 please.
true

Tell me the assay call for O=C(Nc1ccc(-n2cc(-c3ccncc3)c(-c3ccc(O)c(Cl)c3)n2)cc1)c1ccc(Cl)c(Cl)c1 please.
false

Tell me the assay call for O=C(O)c1cc2ccccc2cc1Nc1ccccc1 please.
false

Tell me the assay call for C=C1C(=O)O[C@H]2[C@H]1CC/C(CNC(=O)/C1=C/CC[C@@]3(C)O[C@H]3[C@H]3OC(=O)C(=C)[C@@H]3CC1)=C\CC[C@@]1(C)O[C@@H]21 please.
false

Tell me the assay call for COc1cc(/C=C/C(=O)c2c(C)n([O-])c3cc(C)c(C)cc3[n+]2=O)cc(OC)c1OC please.
false

====

System: RXF 393 renal
assay: NCI-60 one-dose screen, 48 h (100 = growth as untreated, 0 = no growth, -100 = all killed)
reported.conditions: 10 µM unless noted
Compounds without any hit were thinned out: in the full panel of roughly 83,000, 20% have a hit.
Could you mark each record met if its growth falls strictly under 80%, and not met if it equals or exceeds it?

hey, is growth for CCC1(C(N)=O)CC2C=CC1CC2 (stereo not given) lower than 80% or not?
not met

hey, is growth for O=C(COc1ccc(Cl)cc1Cl)N1N=C(c2ccc(Cl)cc2Cl)CC1(O)c1cc(F)c(Cl)cc1Cl (stereo not given) lower than 80% or not?
not met

====

Tested on: 786-0 renal
assay: NCI-60 one-dose screen, 48 h (100 = growth as untreated, 0 = no growth, -100 = all killed)
reported.conditions: 10 µM unless noted
Compounds without any hit were thinned out: in the full panel of roughly 83,000, 20% have a hit.
quantity: growth (%)
API: value field is a number in %; no unit string.

| molecule | target.of.assay | quantity | observed.measurement |
| --- | --- | --- | --- |
| O=S(c1ccccc1)c1ccc2nnnn2n1 (stereo unspecified) | 786-0 renal | growth | 104 |
| NC(N)=N/N=C/c1ccc([N+](=O)[O-])cc1 | 786-0 renal | growth | 103 |
| Nc1ncnc2c1c(-c1ccc(Oc3ccccc3)cc1)nn2C[C@H]1SSC[C@@H]1O | 786-0 renal | growth | 66.2 |
| CCc1cccc(C)c1NC(=O)c1sc2nc3c(cc2c1N)CCCCC3 | 786-0 renal | growth | 44.8 |
| O=C1CCC(=O)N1C1CCCCC1 | 786-0 renal | growth | 106 |

Entry COc1ccc(OC)c(NCC(=O)n2nc(/C=C\c3ccc(O)c(OC)c3)cc2/C=C\c2ccc(O)c(OC)c2)c1 : reported growth = ?
-7.3
